system_tested: AMPKα1β1γ1 (Homo sapiens, UniProt Q13131+Q9Y478)
Construct: purchased CARNA 02-113
Sequence (Q13131 whole entry): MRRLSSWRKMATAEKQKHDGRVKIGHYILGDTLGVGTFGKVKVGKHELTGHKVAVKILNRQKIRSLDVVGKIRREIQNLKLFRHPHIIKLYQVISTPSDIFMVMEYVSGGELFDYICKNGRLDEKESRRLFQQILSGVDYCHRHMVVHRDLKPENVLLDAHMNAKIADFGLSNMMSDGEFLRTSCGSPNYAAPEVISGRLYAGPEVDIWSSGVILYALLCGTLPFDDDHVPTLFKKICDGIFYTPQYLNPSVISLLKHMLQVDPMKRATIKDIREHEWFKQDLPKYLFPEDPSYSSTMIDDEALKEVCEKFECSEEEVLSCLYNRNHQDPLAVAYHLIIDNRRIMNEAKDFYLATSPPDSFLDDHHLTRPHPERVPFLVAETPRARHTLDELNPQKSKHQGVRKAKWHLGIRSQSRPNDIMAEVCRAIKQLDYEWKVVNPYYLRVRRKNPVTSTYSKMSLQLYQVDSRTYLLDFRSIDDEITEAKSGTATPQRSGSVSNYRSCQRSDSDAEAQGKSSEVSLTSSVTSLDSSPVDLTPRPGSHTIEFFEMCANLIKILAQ
Sequence (Q9Y478 whole entry): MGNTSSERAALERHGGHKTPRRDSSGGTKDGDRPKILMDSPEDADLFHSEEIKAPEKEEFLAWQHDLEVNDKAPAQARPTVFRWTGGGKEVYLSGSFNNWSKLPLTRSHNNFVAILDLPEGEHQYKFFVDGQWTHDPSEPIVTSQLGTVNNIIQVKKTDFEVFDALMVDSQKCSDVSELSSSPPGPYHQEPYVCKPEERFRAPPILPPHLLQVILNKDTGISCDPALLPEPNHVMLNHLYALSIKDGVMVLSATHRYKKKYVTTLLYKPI
Sequence (P54619 whole entry partner): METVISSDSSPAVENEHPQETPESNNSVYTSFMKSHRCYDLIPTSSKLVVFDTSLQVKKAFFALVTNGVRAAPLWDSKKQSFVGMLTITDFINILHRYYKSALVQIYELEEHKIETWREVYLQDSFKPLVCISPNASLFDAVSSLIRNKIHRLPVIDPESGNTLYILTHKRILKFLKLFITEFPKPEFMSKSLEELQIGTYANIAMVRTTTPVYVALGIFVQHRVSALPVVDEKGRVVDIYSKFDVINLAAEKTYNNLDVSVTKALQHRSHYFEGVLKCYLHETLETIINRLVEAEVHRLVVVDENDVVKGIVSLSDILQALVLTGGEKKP
measurement_description: In vitro assay for AMPK (α1β1γ1) enzyme agonist activity (TR-FRET)
Assay type: biochemical
pEC50: −log10 of the molar value.
pEC50 values by entry

CN(C(=O)c1c[nH]c2cc(Cl)c(-c3ccc(C4(CO)CC4)cc3)cc12)c1cc[nH]n1    < 6.10
CN(Cc1cccs1)C(=O)c1c[nH]c2cc(Cl)c(-c3ccc(C4(CO)CC4)cc3)cc12    < 6.10
O=C(Nc1ncco1)c1c[nH]c2cc(Cl)c(-c3ccc(-c4ccccc4)cc3)cc12    < 6.10

Shift focus to the following entry.
Query: # lookup: pEC50 of `O=C(Nc1cc[nH]n1)c1c[nH]c2cc(Cl)c(-c3ccc(-c4ccccc4O)cc3)cc12`
Response: 6.10 to 6.70
